pEC50 listing for selected molecules.
# Tested target: N-formyl peptide receptor 2 (Homo sapiens)
# Sequence (P25090 whole entry): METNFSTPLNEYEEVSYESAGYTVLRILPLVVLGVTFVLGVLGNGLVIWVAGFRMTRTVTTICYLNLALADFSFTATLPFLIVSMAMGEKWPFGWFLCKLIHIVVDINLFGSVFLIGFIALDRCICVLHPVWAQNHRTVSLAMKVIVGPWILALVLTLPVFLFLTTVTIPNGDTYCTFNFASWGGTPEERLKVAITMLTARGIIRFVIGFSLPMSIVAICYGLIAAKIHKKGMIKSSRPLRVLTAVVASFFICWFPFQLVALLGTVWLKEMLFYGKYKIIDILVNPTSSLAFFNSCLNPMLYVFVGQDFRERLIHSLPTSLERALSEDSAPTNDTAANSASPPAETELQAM
# Protocol text: FPR2 and FPR1 Cyclic Adenosine Monophosphate (cAMP) Assays
# Protocol: A mixture of forskolin (5 M final for FPR2 or 10 M final for FPR1) and IBMX (200 M final) were added to 384-well Proxiplates (Perkin-Elmer) pre-dotted with test compounds in DMSO (1% final) at final concentrations in the range of 0.020 nM to 100 µM. […] The level of intracellular cAMP was determined using the HTRF HiRange cAMP assay reagent kit (Cisbio) according to manufacturer s instruction. […]
pEC50: −log10 of the molar value.

{"columns": ["Molecule", "pEC50"],
 "data": [
  ["COc1cc(F)c([C@@H]2CN(c3c(C)ccn(C4CCN(C)C4)c3=O)C(=O)[C@H]2NC(=O)c2ccc(Cl)cc2)c(F)c1 (stereo partly drawn)", 8.46],
  ["COc1cc(F)c([C@@H]2CN(c3c(C)ccn(CC(O)C4CC4)c3=O)C(=O)[C@H]2NC(=O)c2ccc(Cl)cc2)c(F)c1 (stereo partly drawn)", 8.15],
  ["COc1cc(C2CCN(C)CC2)nc(N2C(=O)[C@@H](NC(=O)c3ccc(Cl)cc3)[C@H](c3c(F)cc(OC)cc3F)[C@H]2C)c1", 8.19]
]}
